# Tested on: SORVU (shattercane)
# Test Description: Pre-plant incorporated (PPI) herbicidal activity, warm season
# Assay type: in vivo, Sorghum vulgare
# Measurement Context: Sorghum bicolor; PPI application, 30 g/ha; read-out: Percent inhibition SORVU
A collection of compounds and their measured inhibition at 30 g/ha
Measured Property: inhibition at 30 g/ha

- Compound: "C=C(Br)CC(F)(F)S(=O)(=O)c1ncn(C(=O)N(CC)CC)n1 [Example 19]"
  Assay Value: "50%"
- Compound: "C=C(C)CC(F)(F)S(=O)(=O)c1ncn(C(=O)N(CC)CC)n1 [Example 18]"
  Assay Value: "50%"
- Compound: "C=CCC(F)(F)S(=O)(=O)c1ncn(C(=O)N(CC)CC)n1 [Example 17]"
  Assay Value: "70%"
- Compound: "CCN(CC)C(=O)n1cnc(S(=O)(=O)C(F)(F)Br)n1 [Example 1]"
  Assay Value: "80%"
- Compound: "CCSC(F)(F)S(=O)(=O)c1ncn(C(=O)N(CC)CC)n1 [Example 8]"
  Assay Value: "50%"
- Compound: "CCN(CC)C(=O)n1cnc(S(=O)(=O)C(F)F)n1 [Example 15]"
  Assay Value: "60%"
